Property: MIC; scope: individual compounds
- System: Pseudomonas aeruginosa Hamburgensis
- MEASUREMENT NOTES: serial dilution test in microtiter system (bacteriostasis, MIC)
- Assay type: cell-based
- EXPERIMENTAL SETUP: liquid medium, 18 to 20 h at 37°C, read-out: MHK-Werte Pseud. aerug. Hbg.
Record the value in µg/mL, omitting the unit from your answer.

CC1(C)S[C@@H]2[C@H](NC(=O)[C@H](NC(=O)N3CCNC3=O)c3ccccc3)C(=O)N2[C@H]1C(=O)O [A, reference compound]; 8
CNC(=O)c1ccc(Nc2ncc(NC(=O)NC(C(=O)NC3C(=O)N4C3SC(C)(C)C4C(=O)O)c3ccc(O)cc3)c(O)n2)cc1 (stereo not drawn); 1
CC1(C)SC2C(NC(=O)C(NC(=O)Nc3cnc(Nc4ccc(C(N)=O)cc4)nc3O)c3ccc(O)c(Cl)c3)C(=O)N2C1C(=O)O (stereo not drawn); 2
CC1(C)SC2C(NC(=O)C(NC(=O)Nc3cnc(Nc4ccc(S(N)(=O)=O)c(O)c4)nc3O)c3ccc(O)c(Cl)c3)C(=O)N2C1C(=O)O (stereo not drawn); 2
CC1(C)SC2C(NC(=O)C(NC(=O)Nc3cnc(Nc4ccc(S(C)(=O)=O)cc4)nc3O)c3ccccc3)C(=O)N2C1C(=O)O (stereo not drawn); 1
CC1(C)S[C@@H]2[C@H](NC(=O)[C@H](NC(=O)Nc3cnccc3O)c3ccccc3)C(=O)N2[C@H]1C(=O)O [C, reference compound]; 8
CC1(C)SC2C(NC(=O)C(NC(=O)Nc3cnc(Nc4ccc([N+](=O)[O-])cc4)nc3O)c3ccccc3)C(=O)N2C1C(=O)O (stereo not drawn); 2
CNS(=O)(=O)c1ccc(Nc2ncc(NC(=O)N[C@@H](C(=O)N[C@@H]3C(=O)N4[C@@H]3SC(C)(C)[C@@H]4C(=O)O)c3ccccc3)c(O)n2)cc1; 1
CC1(C)S[C@@H]2[C@H](NC(=O)[C@H](NC(=O)Nc3cnc(Nc4cccc(S(N)(=O)=O)c4)nc3O)c3ccc(O)cc3)C(=O)N2[C@H]1C(=O)O; 2
CC1(C)S[C@@H]2[C@H](NC(=O)C(NC(=O)Nc3cnc(Nc4ccc(C(N)=O)c(O)c4)nc3O)c3ccc(O)cc3)C(=O)N2[C@H]1C(=O)O (stereo partly drawn); 1

Reported MIC for Pseudomonas aeruginosa Hamburgensis, given C[S+]([O-])c1ccc(CNc2ncc(NC(=O)NC(C(=O)N[C@@H]3C(=O)N4[C@@H]3SC(C)(C)[C@@H]4C(=O)O)c3ccc(O)cc3)c(O)n2)cc1 (stereo partly drawn) ?
2

Reported MIC for Pseudomonas aeruginosa Hamburgensis, given `CNS(=O)(=O)c1ccc(Nc2ncc(NC(=O)N[C@@H](C(=O)N[C@@H]3C(=O)N4[C@@H]3SC(C)(C)[C@@H]4C(=O)O)c3ccc(O)c(Cl)c3)c(O)n2)cc1` ?
2
